Quick reference: Ki of the listed items.
biological target: Cysteinyl leukotriene receptor 1 (Cavia porcellus, UniProt Q2NNR5); assay: In vitro inhibitory activity against leukotriene D4 receptor

- compound: "O[C@@H]1c2ccc(OCc3ccc4ccccc4n3)cc2OC[C@H]1Cc1cccnc1"
  Ki: "4.1 µM"

## Task Returns the measured Ki for the input compound. Input: C[C@@H](Oc1ccc2c(c1)OC[C@@H](Cc1cccnc1)[C@@H]2O)c1ccc2ccccc2n1
## Result > 50 µM

## Task Returns the measured Ki for the input compound. Input: O[C@@H]1c2cc(OCc3ccc4ccccc4n3)ccc2OC[C@H]1Cc1cccnc1
## Result 1 µM

## Task Returns the measured Ki for the input compound. Input: O[C@@H]1c2ccc(OCc3ccc4ccccc4n3)cc2OC[C@@H]1Cc1cccnc1
## Result 1.3 µM

## Task Returns the measured Ki for the input compound. Input: C[C@H](Oc1ccc2c(c1)OC[C@@H](Cc1cccnc1)[C@@H]2O)c1ccc2ccccc2n1
## Result > 50 µM

## Task Returns the measured Ki for the input compound. Input: CC(Oc1ccc2c(c1)OC[C@H](Cc1cccnc1)[C@@H]2O)c1ccc2ccccc2n1 (stereo partly drawn)
## Result > 50 µM

## Task Returns the measured Ki for the input compound. Input: CC(Oc1ccc2c(c1)OC[C@H](Cc1ccccn1)[C@@H]2O)c1ccc2ccccc2n1 (stereo partly drawn)
## Result > 50 µM

## Task Returns the measured Ki for the input compound. Input: CC(Oc1ccc2c(c1)OC[C@@H](Cc1ccccn1)[C@@H]2O)c1ccc2ccccc2n1 (stereo partly drawn)
## Result > 50 µM

====

biological target: Leukotriene B4 receptor 1 (Homo sapiens, UniProt Q15722); experiment: In vitro inhibitory activity against human neutrophil leukotriene B4 (LTB4)
Sequence (Q15722 whole entry): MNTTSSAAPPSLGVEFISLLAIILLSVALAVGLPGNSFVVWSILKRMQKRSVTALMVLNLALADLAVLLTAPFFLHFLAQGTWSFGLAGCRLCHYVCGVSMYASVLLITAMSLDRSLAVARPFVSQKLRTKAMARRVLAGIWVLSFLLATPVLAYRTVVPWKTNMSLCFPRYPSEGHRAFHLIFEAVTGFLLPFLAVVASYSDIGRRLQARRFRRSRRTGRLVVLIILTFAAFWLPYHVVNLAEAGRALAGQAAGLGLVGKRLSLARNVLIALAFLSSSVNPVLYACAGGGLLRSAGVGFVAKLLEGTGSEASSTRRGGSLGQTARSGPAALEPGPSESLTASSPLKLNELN
value_type: Ki (µM)
Please give a number only; it is taken to be in µM.

Consider the reported Ki for these molecules:
- molecule: "CC(Oc1ccc2c(c1)OC[C@@H](Cc1ccccn1)[C@@H]2O)c1ccc2ccccc2n1 (some centres not stated)"
  measure_unit: "µM"
  Ki: 0.24
- molecule: "C[C@H](Oc1ccc2c(c1)OC[C@@H](Cc1cccnc1)[C@@H]2O)c1ccc2ccccc2n1"
  measure_unit: "µM"
  Ki: 1.9
- molecule: "CC(Oc1ccc2c(c1)OC[C@H](Cc1cccnc1)[C@@H]2O)c1ccc2ccccc2n1 (some centres not stated)"
  measure_unit: "µM"
  Ki: 5.2
- molecule: "O[C@@H]1c2cc(OCc3ccc4ccccc4n3)ccc2OC[C@H]1Cc1cccnc1"
  measure_unit: "µM"
  Ki: 16
- molecule: "C[C@@H](Oc1ccc2c(c1)OC[C@@H](Cc1cccnc1)[C@@H]2O)c1ccc2ccccc2n1"
  measure_unit: "µM"
  Ki: 0.33

## Task Which Ki is reported with Leukotriene B4 receptor 1 (Homo sapiens, UniProt Q15722) for this entry: O[C@@H]1c2cc(OCc3ccc4ccccc4n3)ccc2OC[C@@H]1Cc1cccnc1 ?
## Result 38

## Task Which Ki is reported with Leukotriene B4 receptor 1 (Homo sapiens, UniProt Q15722) for this entry: CC(Oc1ccc2c(c1)OC[C@H](Cc1ccccn1)[C@@H]2O)c1ccc2ccccc2n1 (some centres not stated) ?
## Result 3.3

====

Target: Cysteinyl leukotriene receptor 1 (Cavia porcellus, UniProt Q2NNR5)
Sequence (Q2NNR5 whole entry): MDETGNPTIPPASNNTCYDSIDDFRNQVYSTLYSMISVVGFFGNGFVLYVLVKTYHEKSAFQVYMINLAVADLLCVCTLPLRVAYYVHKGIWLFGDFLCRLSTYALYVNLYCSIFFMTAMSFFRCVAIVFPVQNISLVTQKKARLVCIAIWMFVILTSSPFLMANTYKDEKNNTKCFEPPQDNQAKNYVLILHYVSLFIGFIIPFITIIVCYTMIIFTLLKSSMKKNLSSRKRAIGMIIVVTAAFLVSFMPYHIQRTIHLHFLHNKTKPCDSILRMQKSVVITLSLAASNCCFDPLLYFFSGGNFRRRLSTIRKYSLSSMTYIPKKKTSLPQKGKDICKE
Assay: In vitro inhibitory activity against human leukotriene D4 (LTD4)
value_type: pKi
# pKi is unitless: minus log10 of the molar concentration; print number only

## Task Returns the measured pKi for the input compound. Input: O[C@@H]1c2cc(OCc3ccc4ccccc4n3)ccc2OC[C@@H]1Cc1cccnc1
## Result 5.80

Values from ChEMBL document CHEMBL1149982
